All figures here come from patent US6465196B1.

# Tested on: a strand of SEQ ID NO:1
# assay.protocol: Specific hybridization of LDLR adaptin domain-encoding polynucleotides under stringent conditions
# Format: binding, human
# Parameters: key: +: hybridize with a strand of SEQ ID NO:1 under Conditions I and/or II
# condition.info: PTB domain encoding polynucleotides; Conditions I and/or II
measured.parameter: Hybridization

1. SEQ ID NO:1, nucleotides 321-344: LDLR adaptin PTB domain encoding polynucleotide (DNA CATTGAGAACGTGTCCATATACAG; chemistry not given here) : +
2. SEQ ID NO:1, nucleotides 142-164: LDLR adaptin PTB domain encoding polynucleotide (DNA TTCAGCCTCAAGTACCTGGGCAT; chemistry not given here) : +
3. SEQ ID NO:1, nucleotides 393-416: LDLR adaptin PTB domain encoding polynucleotide (DNA CATCGCCCAGAGCCAGCACAACCA; chemistry not given here) : +
